- System: Canis familiaris
- Assay Method Text: Inhibition of gastric acid secretion at 20 mg/kg oral administration to dogs
- Format: functional
- Condition Info: Canis lupus familiaris, Stomach
Experimental Endpoint: inhibition in vivo at 20 mg/kg (%)
Form entry: value (%) — number only.

Cc1cc(C)nc(N(CCCCN(C(C)C)C(C)C)C(=O)N(C)C)c1 | 5

// switching to the query molecule
Query string: Need inhibition in vivo at 20 mg/kg of CC(C)N(CCN(C(=O)N(C)C)c1ccc(Cl)cn1)C(C)C , thanks.
Result string: 63

----------
- Tested on: Canis familiaris
- Assay Method Text: Inhibition of gastric acid secretion at 40 mg/kg oral administration to dogs
- Type: functional
- Condition Info: Canis lupus familiaris, Stomach
Note to self: values exactly at 40% are True. So inhibition in vivo at 40 mg/kg at or above 40% is True, below is False.

Cc1cc(C)nc(N(CCNC(C)C)C(=O)N(C)C)c1 | True

Query string: State whether the measured inhibition in vivo at 40 mg/kg reaches 40%, counting equality as reaching it, for CC(C)N(CCN(C(=O)N(C)C)c1ccccn1)C(C)C
Result string: True

Query string: State whether the measured inhibition in vivo at 40 mg/kg reaches 40%, counting equality as reaching it, for Cc1ccc(N(CCN(C(C)C)C(C)C)C(=O)N(C)C)nc1
Result string: False

Query string: State whether the measured inhibition in vivo at 40 mg/kg reaches 40%, counting equality as reaching it, for CCCN(CCC)CCN(C(=O)N(C)C)c1cc(C)cc(C)n1
Result string: True

Query string: State whether the measured inhibition in vivo at 40 mg/kg reaches 40%, counting equality as reaching it, for Cc1cc(C)nc(N(CCCN(C(C)C)C(C)C)C(=O)N(C)C)c1
Result string: False

----------
- Tested on: Canis familiaris
- Assay Method Text: Inhibition of gastric acid secretion at 20 mg/kg oral administration to dogs
- Assay type: functional
- Condition Info: Canis lupus familiaris, Stomach
Experimental Endpoint: inhibition in vivo at 20 mg/kg (%)
Form entry: value (%) — number only.

Query string: Need inhibition in vivo at 20 mg/kg of CC(C)N(CCN(C(=O)N(C)C)c1ccccn1)C(C)C , thanks.
Result string: 17

Query string: Need inhibition in vivo at 20 mg/kg of Cc1cc(Cl)nc(N(CCN(C(C)C)C(C)C)C(=O)N(C)C)c1 , thanks.
Result string: 71

Query string: Need inhibition in vivo at 20 mg/kg of Cc1cc(C)nc(N(CCN(C(C)C)C(C)C)C(=O)N(C)C)c1.Cl , thanks.
Result string: 100

Query string: Need inhibition in vivo at 20 mg/kg of Cc1cc(C)nc(N(CCNC(C)C)C(=O)N(C)C)c1 , thanks.
Result string: 33

Query string: Need inhibition in vivo at 20 mg/kg of Cc1cc(N(CCN(C(C)C)C(C)C)C(=O)N(C)C)nc(C)c1Cl , thanks.
Result string: 95

Query string: Need inhibition in vivo at 20 mg/kg of Cc1cccc(N(CCN(C(C)C)C(C)C)C(=O)N(C)C)n1 , thanks.
Result string: 87

----------
- System: Canis familiaris
- Assay Method Text: Inhibition of gastric acid secretion at 20 mg/kg oral administration to dogs
- Assay type: functional
- Condition Info: Canis lupus familiaris, Stomach
Quick list: inhibition in vivo at 20 mg/kg per entry.

Would you please look over these solved cases?
CNC(=O)N(CCN(C(C)C)C(C)C)c1cc(C)cc(C)n1 | 44%
Cc1ccc(N(CCN(C(C)C)C(C)C)C(=O)N(C)C)nc1 | 19%
Cc1ccnc(N(CCN(C(C)C)C(C)C)C(=O)N(C)C)c1 | 95%
Cc1cc(C)nc(N(CCN(C)C)C(=O)N(C)C)c1 | 58%

Query string: Find the measured inhibition in vivo at 20 mg/kg: item COc1ccnc(N(CCN(C(C)C)C(C)C)C(=O)N(C)C)c1 , target or system Canis familiaris.
Result string: 84%

Query string: Find the measured inhibition in vivo at 20 mg/kg: item Cc1cc(C)nc(N(CCN(C(C)C)C(C)C)C(N)=O)c1 , target or system Canis familiaris.
Result string: 18%

Query string: Find the measured inhibition in vivo at 20 mg/kg: item CC(C)N(CCN(C(=O)N(C)C)c1cccc(Cl)n1)C(C)C , target or system Canis familiaris.
Result string: 78%

Query string: Find the measured inhibition in vivo at 20 mg/kg: item CCCN(CCC)CCN(C(=O)N(C)C)c1cc(C)cc(C)n1 , target or system Canis familiaris.
Result string: 22%

Query string: Find the measured inhibition in vivo at 20 mg/kg: item Cc1cc(C)nc(N(CCCN(C(C)C)C(C)C)C(=O)N(C)C)c1 , target or system Canis familiaris.
Result string: 0%

----------
Quick list: inhibition in vivo at 40 mg/kg per entry.
- Tested on: Canis familiaris
- Assay Method Text: Inhibition of gastric acid secretion at 40 mg/kg oral administration to dogs
- Format: functional
- Condition Info: Canis lupus familiaris, Stomach

Would you please look over these solved cases?
Cc1cc(C)nc(N(CCN(C)C)C(=O)N(C)C)c1 | 58%
Cc1cc(C)nc(N(CCCCN(C(C)C)C(C)C)C(=O)N(C)C)c1 | 3%

// switching to the query molecule
Query string: Find the measured inhibition in vivo at 40 mg/kg: item CNCCN(C(=O)N(C)C)c1cc(C)cc(C)n1 , target or system Canis familiaris.
Result string: 20%
